From: patent US20200055939A1

biological target: MICA*004 on HCC1534 cells (human, UniProt Q29983 24-383); test: cell-based or functional assay; note: test concentration or dose not given here
reported_metric: % Inhibition (%)
Reply numerically in %, unit not repeated.

INPUT: // fetch % Inhibition given entry 15F11 (m IgG2a, CHO) (antibody, V domains shown) VH: EIQLQQSGPELVKPGASVRVSCKPSGYAFTSNNIYWVKQSRRKSLEWIGYIDPYIGRIIYNQQFKDKATLTVDKSSSTAYMHLNSLTSEDSAVYYCSRSGERSNFDYWGQGTTLTVSS VL: EIVLTQSPTAMAASPGEKITITCSASSSISSNYLHWYQQKPGFSPKLLIYRTSNLASGVPARFSGSGSGTSYSLTIGPMEAEDVATYYCQQGGSLPLTFGAGTKVEIK
OUTPUT: 60

INPUT: Identify measured % Inhibition associated with 13A9 (m IgG2a, CHO) (antibody, V domains shown) VH: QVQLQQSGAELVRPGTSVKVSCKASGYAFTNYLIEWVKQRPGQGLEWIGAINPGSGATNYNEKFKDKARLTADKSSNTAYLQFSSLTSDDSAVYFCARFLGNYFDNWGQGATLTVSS VL: DIQMTQSPASLSASVGETVTITCRASGNIHSYLAWYQQKQGKSPQLLVYYAETLADGVPSRFSGRGSGTQYSLKINSLQPEDFGSYFCQQFWTTPYTFGGGTKVEIK
OUTPUT: 34

INPUT: Report % Inhibition, nothing else, for this binder: 1D5v15 (antibody, IgG1, V domains shown, humanized variant of 1D5) VH: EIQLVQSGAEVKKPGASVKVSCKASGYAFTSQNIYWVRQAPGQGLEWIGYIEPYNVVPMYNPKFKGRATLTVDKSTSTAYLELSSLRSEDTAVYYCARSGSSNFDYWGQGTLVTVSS VL: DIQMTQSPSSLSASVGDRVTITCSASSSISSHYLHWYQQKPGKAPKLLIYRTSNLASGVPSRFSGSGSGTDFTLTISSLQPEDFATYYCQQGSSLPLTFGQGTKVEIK
OUTPUT: 45

INPUT: Give recorded % Inhibition. 13A9v3 (antibody, IgG1, V domains shown, humanized variant of 13A9) VH: EVQLVQSGAEVKKPGASVKVSCKASGYAFTNYLIEWVRQAPGQGLEWIGAINPGSGATNYNEKFKDRVTITADTSTSTAYLELSSLRSEDTAVYYCARFLGNYFDNWGQGTLVTVSS VL: DIQMTQSPSSLSASVGDRVTITCRASGNIHSYLAWYQQKPGKSPKLLVYYAETLADGVPSRFSGSGSGTDYTLTISSLQPEDFATYFCQQFWTTPYTFGQGTKVEIK
OUTPUT: 25

INPUT: Retrieve % Inhibition measured for 1D5v10 (antibody, IgG1, V domains shown, humanized variant of 1D5) VH: EVQLVQSGAEVKKPGASVKVSCKASGYAFTSQNIYWVRQAPGQGLEWMGYIEPYNVVPMYNPKFKGRVTMTTDTSTSTAYMELRSLRSDDTAVYYCARSGSSNFDYWGQGTLVTVSS VL: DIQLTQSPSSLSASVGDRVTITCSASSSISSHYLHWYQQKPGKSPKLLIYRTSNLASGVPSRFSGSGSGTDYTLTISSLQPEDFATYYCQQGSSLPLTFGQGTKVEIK and print it.
OUTPUT: 62
